# assayComment: Antiproliferative activity against wild type p110alpha expressing human NZB5 cells after 5 days by [3H]-thymidine incorporation assay
# Assay type: functional, cell-based
pIC50: −log10 of the molar value.
Rule: 1 for pIC50 not less than 6, -1 for anything less.

Inquiry: Form field: pIC50 at least 6? Entry: `C/C(=N\NS(=O)(=O)c1cc([N+](=O)[O-])ccc1N(C)Cc1ccccn1)c1cnn2ccc(C#N)cc12`
Reply text: 1

Inquiry: Another: `CN(/N=C/c1cnn2ccc(C#N)cc12)S(=O)(=O)c1cc(C#N)ccc1OCCN1CCOCC1`
Reply text: 1

Inquiry: Another: `CN(Cc1ccncc1)c1ccc([N+](=O)[O-])cc1S(=O)(=O)N(C)/N=C/c1cnn2ccc(C#N)cc12`
Reply text: 1

Inquiry: Another: `CN(/N=C/c1cnn2ccc(Br)cc12)S(=O)(=O)c1cc([N+](=O)[O-])ccc1OCCN1CCOCC1`
Reply text: 1

Inquiry: Another: `C/C(=N\N(C)S(=O)(=O)c1cc([N+](=O)[O-])ccc1N(C)Cc1ccccn1)c1cnn2ccc(Br)cc12`
Reply text: -1

Inquiry: Another: `CN(CCc1c[nH]cn1)c1ccc([N+](=O)[O-])cc1S(=O)(=O)N(C)/N=C/c1cnn2ccc(C#N)cc12`
Reply text: 1

Inquiry: Another: `CNCCN(C)c1ccc([N+](=O)[O-])cc1S(=O)(=O)N(C)/N=C/c1cnn2ccc(C#N)cc12`
Reply text: 1

Inquiry: Another: `CN(C)CCN(C)c1ccc([N+](=O)[O-])cc1C(=O)N(C)/N=C/c1cnn2ccc(C#N)cc12`
Reply text: -1

Inquiry: Another: `C/C(=N\N(C)S(=O)(=O)c1cc([N+](=O)[O-])ccc1N(C)Cc1ccccn1)c1cnn2ccc(C#N)cc12`
Reply text: -1

Inquiry: Another: `CN(Cc1ccccn1)c1ccc([N+](=O)[O-])cc1S(=O)(=O)N(C)/N=C/c1cnn2ccc(Br)cc12`
Reply text: 1

Inquiry: Another: `CN(CCN)c1ccc([N+](=O)[O-])cc1S(=O)(=O)N(C)/N=C/c1cnn2ccc(C#N)cc12`
Reply text: 1

Inquiry: Another: `CN(CCc1cccnc1)c1ccc([N+](=O)[O-])cc1S(=O)(=O)N(C)/N=C/c1cnn2ccc(C#N)cc12`
Reply text: 1

Inquiry: Another: `CN(/N=C/c1cnn2ccc(C#N)cc12)S(=O)(=O)c1cc([N+](=O)[O-])ccc1NCCN1CCOCC1`
Reply text: -1

Inquiry: Another: `CN(CCN1CCCCC1)c1ccc([N+](=O)[O-])cc1S(=O)(=O)N(C)/N=C/c1cnn2ccc(C#N)cc12`
Reply text: 1

* * *

# assayComment: Antiproliferative activity against wild type p110alpha expressing human NZOV9 cells after 5 days by [3H]-thymidine incorporation assay
# Format: functional, cell-based
Field: label. Allowed values: y (IC50 < 600 nM) or n (IC50 >= 600 nM).

Inquiry: Problem: For the molecule `C/C(=N\N(C)S(=O)(=O)c1cc([N+](=O)[O-])ccc1N(C)CCCN1CCOCC1)c1cnn2ccc(C#N)cc12` , is IC50 under 600 nM?
Reply text: n

Inquiry: Another: `CN(/N=C/c1cnn2ccc(C#N)cc12)S(=O)(=O)c1cc([N+](=O)[O-])ccc1NCc1ccccn1`
Reply text: n

Inquiry: Another: `CN(CCN1CCOCC1)c1ccc([N+](=O)[O-])cc1S(=O)(=O)N(C)/N=C/c1cnn2ccc(C#N)cc12`
Reply text: y

Inquiry: Another: `CN(Cc1ccccn1)c1ccc([N+](=O)[O-])cc1S(=O)(=O)N(C)/N=C/c1cnn2ccc(C#N)cc12`
Reply text: y

Inquiry: Another: `C/C(=N\NS(=O)(=O)c1cc([N+](=O)[O-])ccc1N(C)CCN(C)C)c1cnn2ccc(C#N)cc12`
Reply text: n

Inquiry: Another: `CN(C)CCN(C)c1ccc(C#N)cc1S(=O)(=O)N(C)/N=C/c1cnn2ccc(C#N)cc12`
Reply text: y

Inquiry: Another: `C/C(=N\N(C)S(=O)(=O)c1cc([N+](=O)[O-])ccc1N(C)CCN(C)C)c1cnn2ccc(Br)cc12`
Reply text: n

Inquiry: Another: `CN(C)CCN(C)c1ccc([N+](=O)[O-])cc1S(=O)(=O)N(C)/N=C/c1cnn2ccc(C#N)cc12`
Reply text: y

Inquiry: Another: `CN(C)CCNc1ccc([N+](=O)[O-])cc1S(=O)(=O)N(C)/N=C/c1cnn2ccc(C#N)cc12`
Reply text: n

Inquiry: Another: `CNCCN(C)c1ccc([N+](=O)[O-])cc1S(=O)(=O)N(C)/N=C/c1cnn2ccc(C#N)cc12`
Reply text: y

Inquiry: Another: `CN(CCn1ccnc1)c1ccc([N+](=O)[O-])cc1S(=O)(=O)N(C)/N=C/c1cnn2ccc(C#N)cc12`
Reply text: y

Inquiry: Another: `CN(CCc1cccnc1)c1ccc([N+](=O)[O-])cc1S(=O)(=O)N(C)/N=C/c1cnn2ccc(C#N)cc12`
Reply text: n

Inquiry: Another: `CN(CCCN1CCOCC1)c1ccc(C#N)cc1S(=O)(=O)N(C)/N=C/c1cnn2ccc(C#N)cc12`
Reply text: y

* * *

# system: Phosphatidylinositol 4,5-bisphosphate 3-kinase catalytic subunit delta isoform (Homo sapiens, UniProt O00329)
# Sequence (O00329 whole entry): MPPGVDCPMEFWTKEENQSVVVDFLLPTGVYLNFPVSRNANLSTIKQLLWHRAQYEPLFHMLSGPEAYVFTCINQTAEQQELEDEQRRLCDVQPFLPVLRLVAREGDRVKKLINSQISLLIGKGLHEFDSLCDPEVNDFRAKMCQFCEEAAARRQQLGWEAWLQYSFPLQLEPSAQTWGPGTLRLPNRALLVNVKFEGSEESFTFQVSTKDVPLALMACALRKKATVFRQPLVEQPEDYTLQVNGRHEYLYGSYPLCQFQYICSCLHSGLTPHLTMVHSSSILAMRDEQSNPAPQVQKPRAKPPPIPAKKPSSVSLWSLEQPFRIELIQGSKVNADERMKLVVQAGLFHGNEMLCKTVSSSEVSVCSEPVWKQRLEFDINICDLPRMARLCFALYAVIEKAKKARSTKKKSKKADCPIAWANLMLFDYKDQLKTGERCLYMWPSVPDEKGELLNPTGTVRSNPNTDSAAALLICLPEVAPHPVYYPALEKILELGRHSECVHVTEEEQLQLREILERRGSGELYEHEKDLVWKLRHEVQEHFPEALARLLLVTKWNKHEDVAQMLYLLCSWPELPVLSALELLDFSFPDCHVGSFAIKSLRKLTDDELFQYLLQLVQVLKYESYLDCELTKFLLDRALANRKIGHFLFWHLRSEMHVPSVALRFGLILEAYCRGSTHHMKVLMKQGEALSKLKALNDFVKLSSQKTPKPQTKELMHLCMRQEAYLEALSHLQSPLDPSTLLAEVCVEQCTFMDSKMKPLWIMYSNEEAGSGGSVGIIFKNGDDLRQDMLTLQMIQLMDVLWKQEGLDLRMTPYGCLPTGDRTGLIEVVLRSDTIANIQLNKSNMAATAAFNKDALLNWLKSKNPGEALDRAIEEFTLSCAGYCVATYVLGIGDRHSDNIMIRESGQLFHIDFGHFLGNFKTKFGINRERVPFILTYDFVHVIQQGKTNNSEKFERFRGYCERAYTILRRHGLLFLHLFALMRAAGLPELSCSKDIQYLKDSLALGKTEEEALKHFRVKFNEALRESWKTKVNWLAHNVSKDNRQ
# assayComment: Inhibition of p110delta (unknown origin) using L-alpha phosphatidylinositol as substrate after 1 hr in presence of [gamma33]-ATP by thin layer chromatographic analysis
Exercise: for every item that follows, state its recorded IC50.

Inquiry: Data request, read-out IC50, for `C/C(=N\N(C)S(=O)(=O)c1cc([N+](=O)[O-])ccc1N(C)CCN(C)C)c1cnn2ccc(Br)cc12`
Reply text: > 1000 nM

Inquiry: Another: `C/C(=N\NS(=O)(=O)c1cc([N+](=O)[O-])ccc1N(C)CCN(C)C)c1cnn2ccc(Br)cc12`
Reply text: > 1000 nM

Inquiry: Another: `CN(Cc1ccncc1)c1ccc([N+](=O)[O-])cc1S(=O)(=O)N(C)/N=C/c1cnn2ccc(C#N)cc12`
Reply text: 150 nM

Inquiry: Another: `CN(CCc1cccnc1)c1ccc([N+](=O)[O-])cc1S(=O)(=O)N(C)/N=C/c1cnn2ccc(C#N)cc12`
Reply text: 55 nM

Inquiry: Another: `CN(CCN1CCOCC1)c1ccc([N+](=O)[O-])cc1S(=O)(=O)N(C)/N=C/c1cnn2ccc(C#N)cc12`
Reply text: 74 nM

Inquiry: Another: `CN(C)CCN(C)c1ccc([N+](=O)[O-])cc1S(=O)(=O)N(C)/N=C/c1cnn2ccc(C#N)cc12`
Reply text: 230 nM

* * *

# assayComment: Antiproliferative activity against wild type p110alpha expressing human NZB5 cells after 5 days by [3H]-thymidine incorporation assay
# Format: functional, cell-based
pIC50: −log10 of the molar value.
Rule: 1 (yes) for pIC50 not less than 7, 0 (no) for anything less.

Inquiry: Form field: pIC50 at least 7? Entry: `C/C(=N\NS(=O)(=O)c1cc([N+](=O)[O-])ccc1N(C)CCN(C)C)c1cnn2ccc(C#N)cc12`
Reply text: 0 (no)

Inquiry: Another: `CN(CCN1CCOCC1)c1ccc([N+](=O)[O-])cc1S(=O)(=O)N(C)/N=C/c1cnn2ccc(C#N)cc12`
Reply text: 0 (no)

Inquiry: Another: `CN(C)CCN(C)c1ccc([N+](=O)[O-])cc1S(=O)(=O)N(C)/N=C/c1cnn2ccc(Br)cc12`
Reply text: 1 (yes)

Inquiry: Another: `C/C(=N\N(C)S(=O)(=O)c1cc([N+](=O)[O-])ccc1N(C)CCN(C)C)c1cnn2ccc(C#N)cc12`
Reply text: 0 (no)

Inquiry: Another: `CN(CCn1ccnc1)c1ccc([N+](=O)[O-])cc1S(=O)(=O)N(C)/N=C/c1cnn2ccc(C#N)cc12`
Reply text: 1 (yes)

Inquiry: Another: `CN(CCc1ccccn1)c1ccc([N+](=O)[O-])cc1S(=O)(=O)N(C)/N=C/c1cnn2ccc(C#N)cc12`
Reply text: 1 (yes)

Inquiry: Another: `C/C(=N\N(C)S(=O)(=O)c1cc([N+](=O)[O-])ccc1N(C)CCCN1CCOCC1)c1cnn2ccc(Br)cc12`
Reply text: 0 (no)
